# target: T1, corticotropin releasing factor 2 receptor
# T1 sequence (Q13324 whole entry, species assumed, looked up): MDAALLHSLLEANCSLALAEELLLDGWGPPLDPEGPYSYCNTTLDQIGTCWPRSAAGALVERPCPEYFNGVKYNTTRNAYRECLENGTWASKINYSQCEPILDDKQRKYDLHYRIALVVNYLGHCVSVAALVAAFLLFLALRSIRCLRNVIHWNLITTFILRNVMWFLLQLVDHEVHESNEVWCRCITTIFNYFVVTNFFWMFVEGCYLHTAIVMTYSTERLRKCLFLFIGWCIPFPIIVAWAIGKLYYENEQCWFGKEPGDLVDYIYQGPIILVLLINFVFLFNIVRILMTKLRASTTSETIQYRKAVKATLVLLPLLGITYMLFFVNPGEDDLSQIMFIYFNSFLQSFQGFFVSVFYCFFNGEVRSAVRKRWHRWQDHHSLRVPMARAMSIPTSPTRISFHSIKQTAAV
# protocolDetails: cell-based or functional assay
Ends that are not written are not given here.
Label class 0 if CRF2R EC50 falls below 0.02 µM; label class 1 in every other case.

Asked: Has ZGPPISIDLPLQLLEKMIEIEKQEKEKQQATTNARLLDRV (C-terminal amide) [SEQ ID NO 247] a recorded CRF2R EC50 greater than or equal to 0.02 µM?
Given back: class 0

Asked: Has Ac-PSLSIDLPLLLLRTLLELEKTQSQRERAEQNAIIFASV-NH2 [SEQ ID NO 348] a recorded CRF2R EC50 greater than or equal to 0.02 µM?
Given back: class 0

Asked: Has ZGPPISIDLPIALLRKMIEIEKQEKEKQQAANNRLLLDTI (not fully specified; C-terminal amide) [SEQ ID NO 306] a recorded CRF2R EC50 greater than or equal to 0.02 µM?
Given back: class 1

Asked: Has ZGPPISIDLPTYLLRILIEIEKQEKEKQQAANNRLLLDTI (C-terminal amide) [SEQ ID NO 252] a recorded CRF2R EC50 greater than or equal to 0.02 µM?
Given back: class 1

Asked: Has NDDPPISIDLPFQLLRNMIEMARIENEREQAGLNAKYLAEV-NH2 [SEQ ID NO 258] a recorded CRF2R EC50 greater than or equal to 0.02 µM?
Given back: class 1

Asked: Has ZGPPISIDLPFHLLRKMIEIEKQEKEKQQAANNALLLDTI (C-terminal amide) [SEQ ID NO 228] a recorded CRF2R EC50 greater than or equal to 0.02 µM?
Given back: class 0
